Test system: LOX IMVI
PROTOCOL_NOTES: NCI tumour cell line growth inhibition, 48 h
Active and inactive are the calls of the source. Cut-off read from the data, not from the text of the source: active = GI50 up to about 1.1 µM and inactive = higher.
ATTRIBUTE_MEASURED: GI50

CN1C2CCC1CC(C)(O)C2 (stereo unspecified)	> 100 µM (inactive)
Sc1nnc(COc2ccc(Cl)cc2)[nH]1	> 100 µM (inactive)
C[S+]([O-])c1ccc(COP(N)(=O)N(CCCl)CCCl)cc1 (stereo unspecified)	> 100 µM (inactive)

Each compound below has a reported value. Please supply its GI50.
1. NS(=O)(=O)c1nnc(/N=C(/CCC(=O)O)C(=O)O)s1
2. COC(=O)C(=O)C(CC(=O)Nc1ccc(C)cc1)C(=O)OC (stereo unspecified)
3. Cn1c(=O)[nH]n(-c2ccc3ccccc3c2)c1=O
4. CC(C)=CCNc1ncnc2c1ncn2CCC(=O)OC(C)(C)C
5. COC(=O)[C@H](Cc1c[nH]c2ccccc12)NP(=O)(O)OCC1C=CC(n2cc(C)c(=O)[nH]c2=O)O1 (stereo partly specified)

Outgoing:
> 100 µM (inactive)
> 100 µM (inactive)
> 100 µM (inactive)
> 100 µM (inactive)
> 100 µM (inactive)

Hi there! I need GI50 for each item below, if you can.
1. CC1=NN(C(=O)c2ccccc2O)C(=O)/C1=C/c1cccc([N+](=O)[O-])c1
2. Cn1c2c(c3ccccc31)CCN(CCCN1CCN(c3cccc(Cl)c3)CC1)C2=O
3. CCOP(=O)(/C=C\n1ccc(=O)[nH]c1=O)OCC

Outgoing:
0.695 µM (active)
20.2 µM (inactive)
> 100 µM (inactive)
